Target: T1, Monomeric monkey CD48-mmH (monkey)
T1 construct: Soluble monkey CD48 with a myc-myc-hexa-histidine C-terminal tag; the whole entry is the construct; also called mfCD48-mmH
T1 chain: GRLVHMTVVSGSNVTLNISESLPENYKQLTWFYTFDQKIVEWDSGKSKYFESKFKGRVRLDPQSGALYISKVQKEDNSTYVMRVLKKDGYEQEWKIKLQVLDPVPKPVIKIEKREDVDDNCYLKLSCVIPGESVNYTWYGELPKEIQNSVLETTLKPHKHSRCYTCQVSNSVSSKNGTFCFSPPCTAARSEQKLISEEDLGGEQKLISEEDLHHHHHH
Assay: SPR (Biacore), antibody captured by anti-Fc, CD48 in solution, 25 C
Experimental: Measurements were conducted on a T100-2 BIACORE™ instrument (Biacore Life Sciences division of GE Healthcare, Piscataway, N.J.). […] The soluble CD48 was applied to the flow cell in separate injections at different concentrations, and kinetic association (kₐ) and dissociation (kd) rate constants were determined by fits to the kinetic binding data using Biacore software. […]
Kd: recorded values

binder	Kd / nM
H4H1770P (antibody, human IgG4, V domains shown, Human IgG4 Fc (H4H)) VH: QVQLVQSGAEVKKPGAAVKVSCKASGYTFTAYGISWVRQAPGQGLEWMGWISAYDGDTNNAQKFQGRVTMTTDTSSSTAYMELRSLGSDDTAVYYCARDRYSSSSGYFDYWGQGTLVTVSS VL: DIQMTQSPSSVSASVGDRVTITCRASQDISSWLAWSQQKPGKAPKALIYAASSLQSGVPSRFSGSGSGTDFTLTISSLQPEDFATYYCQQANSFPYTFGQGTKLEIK	0.298
H4H1774P (antibody, human IgG4, V domains shown, Human IgG4 Fc (H4H)) VH: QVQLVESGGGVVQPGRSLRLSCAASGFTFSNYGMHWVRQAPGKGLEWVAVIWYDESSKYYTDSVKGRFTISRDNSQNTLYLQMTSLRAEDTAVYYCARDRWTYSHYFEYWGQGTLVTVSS VL: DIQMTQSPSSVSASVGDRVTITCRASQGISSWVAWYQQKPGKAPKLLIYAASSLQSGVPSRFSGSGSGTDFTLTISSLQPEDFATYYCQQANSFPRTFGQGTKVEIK	0.289
H4H1772P (antibody, human IgG4, V domains shown, Human IgG4 Fc (H4H)) VH: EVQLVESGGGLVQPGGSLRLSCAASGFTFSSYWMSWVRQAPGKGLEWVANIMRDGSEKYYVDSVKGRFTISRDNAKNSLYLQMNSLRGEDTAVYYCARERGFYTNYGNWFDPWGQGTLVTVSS VL: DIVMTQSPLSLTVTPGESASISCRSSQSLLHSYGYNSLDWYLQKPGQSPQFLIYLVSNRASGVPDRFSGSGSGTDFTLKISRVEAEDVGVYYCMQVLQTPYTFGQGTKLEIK	1.1
H4H1763N (antibody, V domains shown, Human IgG4 Fc (H4H)) VH: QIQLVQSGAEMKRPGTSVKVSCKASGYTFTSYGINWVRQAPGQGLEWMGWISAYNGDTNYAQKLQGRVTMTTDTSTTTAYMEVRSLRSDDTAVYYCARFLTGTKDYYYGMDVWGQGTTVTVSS VL: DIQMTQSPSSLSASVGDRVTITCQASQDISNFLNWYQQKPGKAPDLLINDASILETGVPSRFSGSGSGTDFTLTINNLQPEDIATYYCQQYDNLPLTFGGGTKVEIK	2.34
H4H1775P (antibody, human IgG4, V domains shown, Human IgG4 Fc (H4H)) VH: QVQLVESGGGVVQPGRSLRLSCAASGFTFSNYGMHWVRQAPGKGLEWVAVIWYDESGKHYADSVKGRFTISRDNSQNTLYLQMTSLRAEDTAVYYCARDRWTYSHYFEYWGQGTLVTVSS VL: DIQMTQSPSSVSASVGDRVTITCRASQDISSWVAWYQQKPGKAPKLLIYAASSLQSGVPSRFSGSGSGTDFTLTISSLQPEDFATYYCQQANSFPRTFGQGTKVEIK	0.14
